Task for the reader: assign each of the following compounds its reported K (association constants) of the complexes with DNA.
Tested on: DNA
assayText: Dark complex formation (intercalation) with DNA in the ground state, binding parameters
Parameters: unit not given here
testSettings: in vitro, ground state, McGhee and Von Hippel method
Where a name gives a salt, the structure may show the parent alone.
In your answer, state the number alone without any accompanying words.

Q: Recorded K (association constants) of the complexes with DNA of Cc1cc2c(ccc3c(C)cc(=O)oc32)o1 [4,5'-dimethylangelicin] , please.
A: 1410

Q: // query: Cc1cc2occc2c2oc(=O)ccc12 [5-methylangelicin]
A: 1560

Q: // query: Cc1cc2c(cc(C)c3ccc(=O)oc32)o1 [5,5'-dimethylangelicin]
A: 1750

Q: // query: COCc1c(C)oc2ccc3c(C)cc(=O)oc3c12 [4'-methoxymethyl-4,5'-dimethylangelicin, 4,5'-dimethyl-4'-methoxymethylangelicin]
A: 700

Q: // query: Cc1cc2c(ccc3ccc(=O)oc32)o1 [5'-methylangelicin, 5'methylangelicin]
A: 1200

Q: // query: COc1c2occc2cc2ccc(=O)oc12 [8-MOP, 8-methoxypsoralen, reference compound]
A: 740

Q: // query: Cc1cc(=O)oc2c1ccc1occc12 [4-methylangelicin]
A: 1400

Q: // query: O=c1ccc2ccc3occc3c2o1 [angelicin, reference compound]
A: 560

Q: // query: O=c1ccc2cc3ccoc3cc2o1 [psoralen, reference compound]
A: 400

Q: // query: Cc1oc2ccc3c(C)cc(=O)oc3c2c1CN [hydrochloride]
A: 16300

Q: // query: Cc1oc2ccc3c(C)cc(=O)oc3c2c1CO [4'-hydroxymethyl-4,5'-dimethylangelicin, 4,5'-dimethyl-4'-hydroxy-methylangelicin]
A: 1250

* * *

System: psoriasis
assayText: Topical photochemotherapy of psoriasis in patients
Format: in vivo, human
testSettings: topical 0.1% w/v + UV-A; Excellent = 90% clearance
Task for the reader: assign each of the following compounds its reported No. of patients with Excellent result.
State the value, then name its unit.

Q: Recorded No. of patients with Excellent result of `Cc1cc(=O)oc2c1c(C)cc1occc12` , please.
A: 0 patients

Q: // query: O=c1ccc2ccc3occc3c2o1 [angelicin, reference compound]
A: 0 patients

Q: // query: COc1c2occc2cc2ccc(=O)oc12 [8-MOP, 8-methoxypsoralen, reference compound]
A: 3 patients

Q: // query: Cc1oc2ccc3c(C)cc(=O)oc3c2c1CO [4'-hydroxymethyl-4,5'-dimethylangelicin, 4,5'-dimethyl-4'-hydroxy-methylangelicin]
A: 0 patients

Q: // query: `Cc1cc2c(ccc3c(C)cc(=O)oc32)o1`
A: 0 patients

Q: // query: `Cc1cc2occc2c2oc(=O)ccc12`
A: 2 patients

Q: // query: `Cc1cc2cc3c(C)cc(=O)oc3c(C)c2o1`
A: 2 patients

Q: // query: `COc1c2ccoc2cc2oc(=O)ccc12`
A: 0 patients

* * *

Test system: DNA
assayText: Photobinding to DNA, rate constants of the photoreactions
Assay type: biochemical
testSettings: in vitro, UV-A irradiated
Description: (b) Determined according to F. Dall'Acqua, S. Marciani, F. Zambon and G. Rodighiero, Photochem. Photobiol., 29,489(1979). Photobinding capacity to DNA: The introduction of one or two methyl groups in the molecule of angelicin leads to a strong increase of the photobinding to DNA; see Table II. […] Photobiol., 29, 489 (1979).
Structures can show the parent of a compound that is named as a salt.
Task for the reader: assign each of the following compounds its reported Rate constants of the photoreactions with DNA.
# output: bare number, implied unit K × 10^-2 × min^-1

Q: Given the entry Cc1cc2occc2c2oc(=O)ccc12 [5-methylangelicin] , what Rate constants of the photoreactions with DNA was observed with DNA?
A: 3.41

Q: // query: Cc1cc2c(cc(C)c3ccc(=O)oc32)o1 [5,5'-dimethylangelicin]
A: 2.73

Q: // query: COCc1c(C)oc2ccc3c(C)cc(=O)oc3c12 [4'-methoxymethyl-4,5'-dimethylangelicin, 4,5'-dimethyl-4'-methoxymethylangelicin]
A: 1.6

Q: // query: Cc1oc2ccc3c(C)cc(=O)oc3c2c1CN [hydrochloride]
A: 0.8
